Test system: Neisseria gonorrhoeae
Assay: Antimicrobial activity against Neisseria gonorrhoeae ATCC 49226 after 24 hrs by broth microdilution susceptibility assay
Assay type: functional
Settings: ATCC 49226, 24 h
Quick reference: MBC of the listed items.
Give your result in mg/L as a bare value.

Look over these answered cases.
O=[N+]([O-])/C=C/c1ccccc1O :: 2
O=[N+]([O-])/C=C/c1c[nH]c2ccccc12 :: 8
COc1ccc(/C=C/[N+](=O)[O-])cc1 :: 2
COc1cc(/C=C/[N+](=O)[O-])cc(OC)c1 :: 2
COc1ccccc1/C=C/[N+](=O)[O-] :: 2

Next up:
Any idea what its MBC is? The molecule is COc1cc(/C=C/[N+](=O)[O-])ccc1O 4

----------
Tested on: Enterococcus faecalis
Test: Antimicrobial activity against Enterococcus faecalis ATCC 29212 assessed clear zone in inhibition per disk by CLSI disk diffusion susceptibility assay
Type: functional
assay-endpoint: MIC

Look over these answered cases.
COc1ccc(/C=C/[N+](=O)[O-])cc1OP(=O)([O-])[O-].[Na+].[Na+] :: >100 µg
O=[N+]([O-])/C=C/c1c[nH]c2ccccc12 :: >100 µg
CC(=O)Nc1ccc(/C=C/[N+](=O)[O-])cc1 :: >100 µg

Form entry - test system: Enterococcus faecalis; read-out: MIC; molecule: COc1cc(/C=C/[N+](=O)[O-])cc2c1OCO2 >100 µg

Form entry - test system: Enterococcus faecalis; read-out: MIC; molecule: O=[N+]([O-])/C=C/c1ccc(OP(=O)([O-])[O-])cc1.[Na+].[Na+] >100 µg

Form entry - test system: Enterococcus faecalis; read-out: MIC; molecule: COc1cc(OC)c(/C=C/[N+](=O)[O-])c(OC)c1 >100 µg

----------
Test system: P388
Experiment: Cytotoxicity against mouse P388 cells after 48 hrs by sulforhodamine B assay
Assay type: functional
Conditions: P388, 48 h, read-out: ED50 (the source's name)
assay-endpoint: EC50 (µg/mL)
Give your result in µg/mL as a bare value.

COc1cc(/C=C/[N+](=O)[O-])ccc1OCc1ccccc1 :: 16.6
O=[N+]([O-])/C=C/c1c[nH]c2ccccc12 :: 3.7

Any idea what its EC50 is? The molecule is COc1cc(/C=C/[N+](=O)[O-])cc(OC)c1 0.24

----------
Quick reference: MIC of the listed items.
Tested on: Enterobacter cloacae
Test: Antimicrobial activity against Enterobacter cloacae ATCC 13047 assessed clear zone in inhibition per disk by CLSI disk diffusion susceptibility assay
Format: functional

Look over these answered cases.
COc1ccc(/C=C/[N+](=O)[O-])cc1OC :: >100 µg
O=[N+]([O-])/C=C/c1c[nH]c2ccccc12 :: >100 µg

Next up:
Form entry - test system: Enterobacter cloacae; read-out: MIC; compound: O=[N+]([O-])/C=C/c1ccc(OP(=O)([O-])[O-])cc1.[Na+].[Na+] >100 µg
